System: NCI-H460
PROTOCOL: NCI tumour cell line growth inhibition, 48 h
Activity calls are given as the source filed them. Cut-off read from the data, not from the text of the source: active = GI50 up to about 1.1 µM and inactive = higher.
Pick one: True for active, False for inactive

A selection of reference data follows.
{"columns": ["COMPOUND", "ASSIGNED_CATEGORY"],
 "data": [
  ["O=C(Nc1nccs1)c1c(O)nc2sccn2c1=O", "False"],
  ["CC1CSC(=S)N1C(=O)N1C(=S)SCC1C (stereo unspecified)", "False"],
  ["O=C(Cc1cc(=O)oc2cc(O)ccc12)N/N=C/c1ccc(N(CCCl)CCCl)cc1", "False"],
  ["CCOC(=O)CC[C@H](N)C(=O)N[C@@H](Cc1ccc(N(CCCl)CCCl)cc1)C(=O)OCC", "True"],
  ["CC1C(c2ccccc2O)c2cc3c(cc2OC1N1CCOCC1)OCO3 (stereo unspecified)", "False"]
]}

Please look at the following compound next.
Entry O=S(=O)(c1ccc(Cl)cc1)c1ccccc1C1=NCCN1 : call = ? False

###

Test system: DLD-1
PROTOCOL: NCI tumour cell line growth inhibition, 48 h
Calls of active or inactive are those of the source. Cut-off read from the data, not from the text of the source: active = GI50 up to about 1.1 µM and inactive = higher.
ATTRIBUTE_MEASURED: GI50

{"columns": ["COMPOUND", "STUDY_SYSTEM", "ATTRIBUTE_MEASURED", "VAL"],
 "data": [
  ["O=C1NC(O)n2c(=O)[nH]c(=O)n21 (centres undefined)", "DLD-1", "GI50", "> 100 µM (inactive)"],
  ["CCOC(=O)/C=C/c1ccccn1", "DLD-1", "GI50", "> 100 µM (inactive)"],
  ["O=C(O)C(SC(=S)c1ccc(C(=S)SC(C(=O)O)c2ccccc2)cc1)c1ccccc1 (centres undefined)", "DLD-1", "GI50", "> 100 µM (inactive)"],
  ["COc1cccc(C=O)c1[O-].COc1cccc(C=O)c1[O-].[Zn+2]", "DLD-1", "GI50", "47 µM (inactive)"],
  ["C[N+](C)(C)CC1CCC(C[N+](C)(C)C)C1=NO (centres undefined)", "DLD-1", "GI50", "> 100 µM (inactive)"]
]}

Provide GI50 for all items below, preserving their order.
1. CCOC(=O)[C@H]1CSC[C@@H](C(=O)OC)N1
2. CC1=CC(=O)c2cccc(O)c2C1=O
3. CN(N=O)C(=O)ON1C(=O)CCC1=O
4. COc1cc2cc3c4c(cc(OC)c(OC)c4c2cc1OC)CCN3C(=O)OCCN1CCNCC1
5. Oc1ccccc1-c1nnc(S)n1/N=C/c1ccc(-c2ccc(Br)cc2)o1

> 100 µM (inactive)
1.66 µM (inactive)
> 100 µM (inactive)
15.2 µM (inactive)
34 µM (inactive)

###

For each entry below, report its GI50 value.
Tested on: LOX IMVI
PROTOCOL: NCI tumour cell line growth inhibition, 48 h
The source made the active and inactive calls. No stated cut-off is given here; in the data, active = GI50 up to about 1.1 µM and inactive = higher.

Below, 3 molecules whose answers are already recorded.
{"columns": ["MOLECULE", "GI50"],
 "data": [
  ["Oc1c(Cl)cc(CN(Cc2cc(Cl)c(O)c(Cl)c2)C2CCCCC2)cc1Cl", "> 100 µM (inactive)"],
  ["O=[N+]([O-])c1ccc(-c2nc3ccccc3o2)cc1", "> 100 µM (inactive)"],
  ["CN(N=O)C(=O)ON1C(=O)CCC1=O", "> 100 µM (inactive)"]
]}

Provide GI50 for all items below, preserving their order.
1. CC(C)=CCC/C(C)=C/CC/C(C)=C/C(O)c1ccccc1 (stereo unspecified)
2. COC(=O)C1CCC(=O)N1CN(C(C)=O)c1cccc(O)c1 (stereo unspecified)
3. CCOc1ccc(NC(=O)C(=O)CC(=O)C2=C(C)Nc3ccccc3S2)cc1
4. Cn1c2ccccc2n2c3ncccc3c(=S)c(C#N)c12
5. O=c1c2cc([N+](=O)[O-])ccc2n(Cc2ccccc2)n1Cc1ccccc1
6. O=C1N=C2SC(=S)N=C(S)N2NC12c1ccccc1-c1ccccc12

1: 19.6 µM (inactive); 2: > 100 µM (inactive); 3: > 50 µM (inactive); 4: > 100 µM (inactive); 5: 9.2 µM (inactive); 6: > 10 µM (inactive)

Provide GI50 for all items below, preserving their order.
1. CCCCCCc1cc2cc(C(=O)Nc3ccccc3)c(=N)oc2cc1O
2. COc1cc(Nc2ccc3c(c2)CCC3)nc(OC)n1

1. 3.23 µM (inactive)
2. 45.7 µM (inactive)
